Experimental system: T1, FOXP1 LZ-END (UniProt Q9H334 332-677)
T1 sequence: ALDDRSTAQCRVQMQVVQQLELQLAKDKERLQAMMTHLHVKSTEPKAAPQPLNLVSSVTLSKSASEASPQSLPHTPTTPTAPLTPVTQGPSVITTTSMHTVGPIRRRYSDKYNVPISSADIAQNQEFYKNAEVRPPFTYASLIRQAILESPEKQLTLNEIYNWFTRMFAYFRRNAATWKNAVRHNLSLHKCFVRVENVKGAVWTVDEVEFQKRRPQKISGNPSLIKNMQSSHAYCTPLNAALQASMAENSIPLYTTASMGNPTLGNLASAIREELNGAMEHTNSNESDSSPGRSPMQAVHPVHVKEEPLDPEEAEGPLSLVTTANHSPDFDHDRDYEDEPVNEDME
Assay explanation: fluorescence anisotropy; FA: 10 mM HEPES pH 7.5, 100 mM NaCl, 0.02% NaN3, 500 nM DNA, temperature not stated; EMSA: 10 mM HEPES pH 7.5, 1 mM MgCl2, 100 mM KCl, 10% glycerol, 0.1 mg/ml BSA, 500 nM DNA, on ice, gel at 4 C
Measurement setup: protein: recombinant; (purified by nickel IMAC); chain copies: 4; blunt
Readout label: pKd
Answers are plain numbers, as −log10 of the molar value.

*Q* Which pKd reading was recorded for the binder FOXP2 cognate DNA, ROX-labelled (dsDNA) DNA 1: TTAGGTGTTTACTTTCATAG DNA 2: CTATGAAAGTAAACACCTAA ?
*A* 5.89
